- Test Target: T1, Soluble ASGR-1 (human, UniProt P07306 62-291, biotinylated)
- T1 construct: Soluble recombinant protein; also called recombinant, soluble ASGR-1 biotinylated protein
- T1 sequence: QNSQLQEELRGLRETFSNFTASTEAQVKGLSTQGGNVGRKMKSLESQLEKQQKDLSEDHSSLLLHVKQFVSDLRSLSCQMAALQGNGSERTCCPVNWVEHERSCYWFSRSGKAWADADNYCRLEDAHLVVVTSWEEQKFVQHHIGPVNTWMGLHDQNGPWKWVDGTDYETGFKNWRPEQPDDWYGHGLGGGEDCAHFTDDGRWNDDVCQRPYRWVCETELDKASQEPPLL
- Test Method Notes: limited antigen binding assay; biotinylated soluble ASGR-1 coated at 2.5 ng/mL on LumAvidin beads, FACS
# FACS Geomean listing for each entry below

Binder: 198D2 (antibody, V domains shown, Tested as hybridoma supernatant at normalized concentration) VH: QVQLVESGGGVVQPGRSLRLSCAASGFTFRSYGMHWVRQAPGKGLEWVAVIIYDGSYKYYADSVKGRFTISRDNSKNTLYLQMNSLRAEDTAVYYCARTYSGGMDVWGQGTTVTVSS VL: QSVLTQPPSVSAAPGQKVTISCSGSSSNIGSNYVSWYQQLPGTAPKVLIYDNNKRPSGIPDRFSGSKSGTSATLGITGLQTGDEADYYCGTWDSRLNVGVFGGGTKLTVL
FACS Geomean, FACS Geomean: 1870
//
Binder: 75G3 (antibody, V domains shown, Tested as hybridoma supernatant at normalized concentration) VH: QVQLQQWGAGLLKPSETLSLTCAVYGGSLSGSYWSWIRQPPGKGLEWIGEINLSGSTNYNPSLKSRVTISVDTSKSQFSLTLRSVTAADTAVYYCARDYGGLDYWGQGTLVTVSS VL: EIVLTQSPGTLSLSPGERATLSCRARQNVDSSYLAWYQQKPGQAPRLLIYGASSRATGIPDRFSGSGSGTDFTLTISRLEPEDFAVFYCQQYERSPWTFGQGTKVEIK
FACS Geomean, FACS Geomean: 35800
//
Binder: 6G7 (antibody, V domains shown, Tested as hybridoma supernatant at normalized concentration) VH: QVQLVESGGGVVQPGRSLRLSCAASGFTFSSYGMHWVRQTPGKGLEWVAIISYVGKNKYYADSVKGRFTISRDNSKNTLYLQMNSLRAEDTAVYYCARRGNSYGGYGMDVWGQGTTVTVSS VL: DIQMTQSPSSRSASVGDRVTITCQASQDISNYLNWCQQKPGKALKLLIYDASTLETGVPSRFSGSGSGTDFTFTISSVQPEDIATYYCQQYDNVPITFGQGTRLEIK
FACS Geomean, FACS Geomean: 2290
//
Binder: 4A2 (antibody, V domains shown, Tested as hybridoma supernatant at normalized concentration) VH: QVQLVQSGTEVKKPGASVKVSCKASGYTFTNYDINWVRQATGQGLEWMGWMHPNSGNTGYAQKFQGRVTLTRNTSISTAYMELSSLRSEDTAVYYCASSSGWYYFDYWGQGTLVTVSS VL: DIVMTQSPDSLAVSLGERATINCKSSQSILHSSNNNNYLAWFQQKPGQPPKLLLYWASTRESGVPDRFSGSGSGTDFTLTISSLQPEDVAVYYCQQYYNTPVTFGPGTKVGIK
FACS Geomean, FACS Geomean: 16600
